# Tested on: Ba/F3 cells expressing EGFR mutations
# assayExplanation: Cell proliferation assay, Ba/F3 cells expressing EGFR mutations (CellTiter-Glo, 72 hours)
# Assay type: cell-based
# particulars: Mus musculus, BaF3, 72 h, BaF3 cells, EGFR L858R - T790-C797S, read-out: GI50 L858R - T790-C797S/BaF3
Each entry below lists one item and its recorded log10(GI50) value.
Plainly stated, the numbers are log10 of GI50 given in nM.

Cc1cc2cc(n1)-c1cnn(C)c1OCCN(CC(F)F)CCn1c(nc3ccccc31)NC2=O = 0.96
C[C@@H]1CCCOc2cc(F)c(F)cc2-c2cc(cn(C)c2=O)C(=O)Nc2nc3ccc(N4CCN(C)CC4)cc3n2C1 = 2.49
Cc1cc2cc(n1)-c1cnn(C)c1OCCN1CC3CCC(C3)(C1)n1c(nc3ccc(N4CCN(C)CC4)cc31)NC2=O (single isomer, unassigned) [Example B9A] = 1.66
CN(C)CCCN(C)c1ccc2nc3n(c2c1)C12CCC(CC1)CN(CCOc1c(cnn1C)-c1cc(cn(C)c1=O)C(=O)N3)C2 = 1.32

In: Value lookup for log10(GI50); key = `Cc1cc2cc(n1)-c1cnn(C)c1OCCN1CC3CCC(CC3)(C1)n1c(nc3ccc(N4CCC5(CCN(C)CC5)C4)cc31)NC2=O`
Out: 1.28

In: Value lookup for log10(GI50); key = `Cc1cc2cc(n1)-c1cnn(C)c1OCCCCCn1c(nc3ccn(C)c(=O)c31)NC2=O`
Out: 2.20

In: Value lookup for log10(GI50); key = `Cc1cc2cc(n1)-c1cnn(C)c1OCCN1CC3CCC(CC3)(C1)n1c(nc3ccc(N4CCC5(CN(C)C5)C4)cc31)NC2=O`
Out: 0.95
